# Test system: Moraxella catarrhalis
# ASSAY TEXT: Antimicrobial activity against drug-susceptible Moraxella catarrhalis 1 after 20 hrs by agar dilution method
# Type: functional
MEASURED PROPERTY: MIC (µg/mL)
Numeric answer only, unit µg/mL assumed.

Identify the measured MIC of CCOC(=O)[C@H]1[C@H](C)O[C@@H](O[C@H]2[C@H](N(C)C)[C@@H](O)[C@H](O[C@H]3[C@@H](CC=O)C[C@@H](C)[C@@H](O)CN(C)CCC(C/C=C/c4cnc5ccccc5c4)NC(=O)C[C@@H](OC(=O)CC)[C@@H]3OC)O[C@@H]2C)C[C@@]1(C)O (stereo in doubt; form 2) for Moraxella catarrhalis.
8

Identify the measured MIC of CCOC(=O)[C@H]1[C@H](C)O[C@@H](O[C@H]2[C@H](N(C)C)[C@@H](O)[C@H](O[C@H]3[C@@H](CC=O)C[C@@H](C)[C@@H](O)CN(C)CCC(CCCc4cnc5ccccc5c4)NC(=O)C[C@@H](OC(=O)CC)[C@@H]3OC)O[C@@H]2C)C[C@@]1(C)O (stereo in doubt) for Moraxella catarrhalis.
8

Identify the measured MIC of CCOC(=O)[C@H]1[C@H](C)O[C@@H](O[C@H]2[C@H](N(C)C)[C@@H](O)[C@H](O[C@H]3[C@@H](CC=O)C[C@@H](C)[C@@H](O)CN(C)CC(/C=C/Cc4cnc5ccccc5c4)CCOC(=O)C[C@@H](OC(=O)CC)[C@@H]3OC)O[C@@H]2C)C[C@@]1(C)O (stereo in doubt; form 2) for Moraxella catarrhalis.
2

Identify the measured MIC of CCOC(=O)[C@H]1[C@H](C)O[C@@H](O[C@H]2[C@H](N(C)C)[C@@H](O)[C@H](O[C@H]3[C@@H](CC=O)C[C@@H](C)[C@@H](O)CN(C)CCC(CCCc4ccnc5ccccc45)NC(=O)C[C@@H](OC(=O)CC)[C@@H]3OC)O[C@@H]2C)C[C@@]1(C)O (stereo in doubt; form 1) for Moraxella catarrhalis.
2

Identify the measured MIC of CCOC(=O)[C@H]1[C@H](C)O[C@@H](O[C@H]2[C@H](N(C)C)[C@@H](O)[C@H](O[C@H]3[C@@H](CC=O)C[C@@H](C)[C@@H](O)CN(C)CCC(/C=C/Cc4ccnc5ccccc45)NC(=O)C[C@@H](OC(=O)CC)[C@@H]3OC)O[C@@H]2C)C[C@@]1(C)O (mixture of isomers) for Moraxella catarrhalis.
1

Identify the measured MIC of CCOC(=O)[C@H]1[C@H](C)O[C@@H](O[C@H]2[C@H](N(C)C)[C@@H](O)[C@H](O[C@H]3[C@@H](CC=O)C[C@@H](C)[C@@H](O)CN(C)CC(/C=C\Cc4ccnc5ccccc45)CCOC(=O)C[C@@H](OC(=O)CC)[C@@H]3OC)O[C@@H]2C)C[C@@]1(C)O (stereo in doubt; form 1) for Moraxella catarrhalis.
2

Identify the measured MIC of CCOC(=O)[C@H]1[C@H](C)O[C@@H](O[C@H]2[C@H](N(C)C)[C@@H](O)[C@H](O[C@H]3[C@@H](CC=O)C[C@@H](C)[C@@H](O)CN(C)CCC(/C=C/Cc4ccnc5ccccc45)NC(=O)C[C@@H](OC(=O)CC)[C@@H]3OC)O[C@@H]2C)C[C@@]1(C)O (stereo in doubt) for Moraxella catarrhalis.
4

Identify the measured MIC of CCOC(=O)[C@H]1[C@H](C)O[C@@H](O[C@H]2[C@H](N(C)C)[C@@H](O)[C@H](O[C@H]3[C@@H](CC=O)C[C@@H](C)[C@@H](O)CN(C)CC(/C=C/Cc4ccnc5ccccc45)CCOC(=O)C[C@@H](OC(=O)CC)[C@@H]3OC)O[C@@H]2C)C[C@@]1(C)O (stereo in doubt; form 2) for Moraxella catarrhalis.
2
